Below, each entry is listed alongside its reported IC50.
Target: CYP2C9 (Homo sapiens (Human))
Sequence (P11712 whole entry, species assumed): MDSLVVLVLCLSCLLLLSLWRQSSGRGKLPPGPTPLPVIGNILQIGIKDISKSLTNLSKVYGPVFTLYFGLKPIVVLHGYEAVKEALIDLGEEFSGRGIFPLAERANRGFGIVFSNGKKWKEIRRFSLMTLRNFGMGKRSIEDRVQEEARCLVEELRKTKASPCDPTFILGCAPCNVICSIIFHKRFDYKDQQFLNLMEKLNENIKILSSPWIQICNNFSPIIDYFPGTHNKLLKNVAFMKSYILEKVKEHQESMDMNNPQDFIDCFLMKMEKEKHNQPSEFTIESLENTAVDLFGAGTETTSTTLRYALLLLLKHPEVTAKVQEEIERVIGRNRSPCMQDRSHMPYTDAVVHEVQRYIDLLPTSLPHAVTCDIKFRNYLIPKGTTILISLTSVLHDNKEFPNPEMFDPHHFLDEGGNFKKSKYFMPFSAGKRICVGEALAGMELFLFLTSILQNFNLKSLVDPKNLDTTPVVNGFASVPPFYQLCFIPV
Assay: CYP inhibition, fluorescent, CYP2C9
Format: in vitro ADME

compound: O=C(c1nc2ncc(CCO)cn2n1)N1C[C@@H]2CN(c3cc(F)ccc3C(F)(F)F)C[C@@H]2C1 [Compound 7p]
IC50: > 20 µM

compound: O=C(c1nc2ncccn2n1)N1C[C@H]2C[C@@H](c3ccccc3C(F)(F)F)C[C@H]2C1 [Compound 7a]
IC50: > 100 µM

compound: O=C(c1nc2ncc(CCO)cn2n1)N1C[C@H]2C[C@@H](c3ccccc3C(F)(F)F)C[C@H]2C1 [Compound 7j]
IC50: 60 µM
